- System: SF-295 CNS
- assay_info: NCI tumour cell line growth inhibition, 48 h; in the data active = GI50 below about 0.43 µM; inactive = the rest
Possible outcomes: 1 (yes) = active, 0 (no) = inactive

# molecule, target_entity, category
data = [
    ("COc1cc2c(/C=C3/C(=O)Nc4ccccc43)c(Cl)n(Cc3ccccc3)c2cc1C", "SF-295 CNS", "0 (no)"),
    ("Clc1nc(Cl)c2ncn(C/C=C\\Cn3cnc4c(Cl)nc(Cl)nc43)c2n1", "SF-295 CNS", "0 (no)"),
    ("COc1cc2c(cc1OCCCCCOc1cc(-c3ccc(F)cc3)nc(C)n1)N=C[C@@H]1CCCN1C2=O", "SF-295 CNS", "0 (no)"),
    ("COC(=O)c1c2c(c(C)[n+]([O-])c1C)C(=O)C=C(NCc1ccc(Cl)cc1)C2=O", "SF-295 CNS", "1 (yes)"),
    ("Cc1cccc2c3c(sc12)C(c1ccc(Cl)cc1)C(C#N)=C(/N=C/c1ccc(Cl)cc1)O3 (stereo not given)", "SF-295 CNS", "1 (yes)"),
]

###

- Test system: UO-31 renal
- assay_info: NCI tumour cell line growth inhibition, 48 h

# molecule, TGI
measured = [
    ("Nc1nc(-n2cccn2)nc(-n2cccn2)c1Br", "> 100 µM"),
    ("O=C(O)CCC(=O)Nc1ccc2c(c1)S(=O)(=O)N(CC(=O)O)C2=O", "> 100 µM"),
    ("CCCCOC(=O)/C(CC(=O)C=C(C)C)=N\\NS(=O)(=O)c1ccc(C)cc1", "> 100 µM"),
    ("COc1ccc(Cl)cc1N1C(=O)C(Cl)=C(Nc2cccc(O)c2)C1=O", "26.6 µM"),
    ("CC1=NC(=Cc2ccc(Cl)cc2)C(=O)N1n1c(-c2ccccc2)nc2ccccc2c1=O", "> 100 µM"),
    ("N[C@@H]1C[C@H](N)c2c(Cl)sc(Cl)c21", "> 100 µM"),
    ("COc1ccc(/C=C/C(=O)NCC(NC(=O)/C=C/c2ccc(OC)c(OC)c2)C(=O)O)cc1OC (stereo not given)", "> 100 µM"),
    ("O=c1cc(-c2ccc(O)c(O)c2)oc2cc(OC3OC(CO)C(O)C(O)C3O)cc(O)c12 (stereo not given)", "> 100 µM"),
    ("CCc1cc(Cc2cc(CC)c(NC(=O)C3=CC(=O)CC(c4ccc(OC)cc4)O3)c(CC)c2Cl)c(Cl)c(CC)c1NC(=O)C1=CC(=O)CC(c2ccc(OC)cc2)O1 (stereo not given)", "30.8 µM"),
    ("CCOC(=O)CNC(=O)C(CSC(=O)N(O)c1ccc(Br)cc1)NC(=O)CCC(N)C(=O)OCC (stereo not given)", "> 50 µM"),
    ("CCCCCCN1C(=O)/C(=c2\\sc3n(c2=O)C2C(NN=3)N(CC)C(=O)N2CC)c2ccccc21 (stereo not given)", "> 50 µM"),
    ("COc1ccc(C2CC(=O)Nc3c2c(C)nn3-c2nc3ccccc3[nH]2)cc1 (stereo not given)", "15.8 µM"),
    ("CCN(CC)c1ccc(/C=C/C2=NN(c3cccc(S(=O)(=O)O)c3)C3(C2)C(Cl)C(=O)N3c2nc3ccccc3s2)cc1 (stereo not given)", "3.6 µM"),
    ("CN1CC=C(OP(=O)(NCc2ccccc2)N(CCCl)CCCl)CC1 (stereo not given)", "> 100 µM"),
    ("CC1CCCc2c(-c3ccc(Cl)cc3)nc(N)c(C#N)c21 (stereo not given)", "61.7 µM"),
    ("O=c1c2cc(Br)ccc2oc2ccc(Br)cc12", "> 100 µM"),
    ("COc1ccc2c(c1)c(Cc1c(C)n(C)c3ccc(OC)cc13)c(C)n2C", "> 100 µM"),
    ("CC(=O)Nc1ccc(-c2nnc(SCC(=O)Nc3ccccc3Cl)o2)cc1", "> 100 µM"),
    ("Nc1ncc2c(n1)-c1ccccc1OC2NC1CC1 (stereo not given)", "> 100 µM"),
    ("Cc1ccc(S(=O)(=O)N/N=C2\\C(=O)C3CC2C(Cl)C3Cl)cc1 (stereo not given)", "> 100 µM"),
]
